Consider the following compounds and their measured IC50 readings.
target: mTOR/GbL/Raptor (mTORC1) (Homo sapiens, UniProt P42345); assay: mTOR/GbL/Raptor (mTORC1) ELISA assay, phosphorylation of 4E-BP1; settings: 0.2 nM mTORC1, 40 uM ATP, 50 nM NHis-tagged 4E-BP1, 120 minutes; read-out: IC50 in this assay (mTORC1 ELISA)

// worked examples, IC50 included
Cc1cc(-c2ccc(-c3ncc[nH]3)cc2)cc2c1OCCN(c1nc(N)nc(C)c1C(C)C)C2 [Compound 42] | ≤ 100 nM
CC(=O)Nc1ncc(-c2cc(C)c3c(c2)CN(c2nc(N)nc(C)c2C(C)C)CCO3)s1 [Compound 106] | ≤ 100 nM
CC(=O)NCc1nc(C)c(C(C)C)c(N2CCOc3c(C)cc(-c4cnc5sc(N)nc5c4)cc3C2)n1 [Compound 119] | ≤ 100 nM

So what's the measured IC50 for this one? COc1cc(-c2cnc3sc(N)nc3c2)cc2c1OCCN(c1nc(N)nc(C)c1C(C)C)C2 [Compound 140]
100 to 500 nM

###

Molecular target: mTOR/GbL/Raptor (mTORC1) (Homo sapiens)
Experiment: mTOR/GbL/Raptor (mTORC1) ELISA assay, phosphorylation of 4E-BP1
Conditions: 0.2 nM mTORC1, 40 uM ATP, 50 nM NHis-tagged 4E-BP1, 120 minutes; read-out: IC50 in this assay (mTORC1 ELISA)
Protocol: The measurement of mTORC1 enzyme activity was performed in an ELISA assay format following the phosphorylation of 4E-BP1 protein. All experiments were performed in the 384-well format. Generally, 0.5 μL DMSO containing varying concentrations of the test Compound was mixed with 15 μL enzyme solution. […] Following the final wash step with TBST, 20 μL of SuperSignal ELISA Femto (Pierce Biotechnology) was added and the luminescence measured using an En Vision plate reader.
quantity.name: IC50

// worked examples, IC50 included
CCc1c(Cl)nc(CN(C)C)nc1N1CCOc2c(C)cc(-c3cnc4sc(N)nc4c3)cc2C1 | ≤ 100 nM
CNc1ncnc(N2CCOc3c(C)cc(-c4cnc5sc(N)nc5c4)cc3C2)c1[N+](=O)[O-] | 100 to 500 nM
CCN(Cc1nc(C)c(C(C)C)c(N2CCOc3c(C)cc(-c4nnc(N)s4)cc3C2)n1)CC(F)F | 100 to 500 nM

So what's the measured IC50 for this one? `Cc1cc(-c2cnc3sc(N)nc3c2)cc2c1OCCN(c1ncc(C(N)=O)c(N)n1)C2`
100 to 500 nM

So what's the measured IC50 for this one? `Cc1cc(-c2cnc(Cl)c(NS(C)(=O)=O)c2)cc2c1OCCN(c1nc(C(=O)NCCN(C)C)nc(C)c1C(C)C)C2`
≤ 100 nM

So what's the measured IC50 for this one? `[2H]C1([2H])Oc2c(C)cc(-c3cnc4sc(N)nc4c3)cc2CN(c2nc(N)nc(C)c2C(C)C)C1([2H])[2H]`
≤ 100 nM

So what's the measured IC50 for this one? `Cc1cc(-c2nnc(N)s2)cc2c1OCCN(c1nc(N)nc(C)c1C(C)C)C2`
≤ 100 nM

So what's the measured IC50 for this one? `Cc1ncc(-c2cc(C)c3c(c2)CN(c2nc(N)nc(C)c2C(C)C)CCO3)s1`
100 to 500 nM

###

Consider the following compounds and their measured pIC50 readings.
molecular target: mTOR/GbL/Raptor (mTORC1) (Homo sapiens); test: mTOR/GbL/Raptor (mTORC1) ELISA assay, phosphorylation of 4E-BP1; details: 0.2 nM mTORC1, 40 uM ATP, 50 nM NHis-tagged 4E-BP1, 120 minutes; read-out: IC50 in this assay (mTORC1 ELISA)
pIC50: −log10 of the molar value.

// worked examples, pIC50 included
COC(=O)c1ccc(-c2cc(C)c3c(c2)CN(c2nc(N)nc(C)c2C(C)C)CCO3)cc1OC | 6.30 to 7.00
Cc1cc(-c2cnc3sc(N)nc3c2)cc2c1OCCN(c1nc(C3CNC3)nc(C)c1C(C)C)C2 | ≥ 7.00
Cc1cc(-c2cnc(Cl)c(NS(C)(=O)=O)c2)cc2c1OCCN(c1ncc(C#N)c(N)n1)C2 | ≥ 7.00
Cc1cc(-c2cnc3sc(N)nc3c2)cc2c1OCCN(c1nc([C@@H]3CC(F)(F)CN3)nc(C)c1C(C)C)C2 | ≥ 7.00
C=C(C)c1c(C)ncnc1N1CCOc2c(C)cc(-c3cnc4sc(N)nc4c3)cc2C1 | ≥ 7.00
Cc1cc(-c2cnc(N)c(S(N)(=O)=O)c2)cc2c1OCCN(c1nc(N)nc(C)c1C(C)C)C2 | ≥ 7.00
Cc1cc(-c2ccc3c(c2)OCO3)cc2c1OCCN(c1nc(N)nc(C)c1C(C)C)C2 | 6.30 to 7.00
Cc1cc(-c2nnc(N)s2)cc2c1OCCN(c1nc(N)nc(C)c1C)C2 | ≥ 7.00

So what's the measured pIC50 for this one? `Cc1cc(-c2cnc3sc(N)nc3c2)cc2c1OCCN(c1nc(CNCC(F)(F)F)nc(C)c1C(C)C)C2`
6.30 to 7.00

###

molecular target: mTOR/GbL/Raptor (mTORC1) (Homo sapiens); test: mTOR/GbL/Raptor (mTORC1) ELISA assay, phosphorylation of 4E-BP1; details: 0.2 nM mTORC1, 40 uM ATP, 50 nM NHis-tagged 4E-BP1, 120 minutes; read-out: IC50 in this assay (mTORC1 ELISA)
Consider the following compounds and their measured IC50 readings.

CCn1cc(-c2cc(C)c3c(c2)CN(c2nc(N)nc(C)c2C(C)C)CCO3)cn1 [Compound 111] | 100 to 500 nM
C=C(C)c1c(C)nc(N)nc1N1CCOc2c(C)cc(-c3cnc4sc(N)nc4c3)cc2C1 [Compound 130] | ≤ 100 nM
COC(C)c1c(C)nc(C)nc1N1CCOc2c(C)cc(-c3cnc4sc(N)nc4c3)cc2C1 (centres unmarked) [Compound 142] | ≤ 100 nM
Cc1cc(-c2nnc(N)s2)cc2c1OCCN(c1nc(CN(C)CC(F)F)nc(C)c1C(C)C)C2 [Compound 168] | ≤ 100 nM

So what's the measured IC50 for this one? COc1ncc(-c2cc(C)c3c(c2)CN(c2nc(N)nc(C)c2C(C)C)CCO3)cn1 [Compound 82]
100 to 500 nM

So what's the measured IC50 for this one? Cc1cc(-c2cnc3sc(N)nc3c2)cc2c1OCCN(c1nc(C(C)O)nc(C)c1C(C)C)C2 (centres unmarked) [Compound 98]
≤ 100 nM

So what's the measured IC50 for this one? Cc1nc2c(c(N3CCOc4c(C)cc(-c5cnc6sc(N)nc6c5)cc4C3)n1)CC(C)(C)CC2 [Compound 20]
≤ 100 nM

So what's the measured IC50 for this one? CCc1c(C)nc(CN(C)C)nc1N1CCOc2c(C)cc(-c3cnc4sc(N)nc4c3)cc2C1 [Compound 67]
≤ 100 nM

###

Consider the following molecules and their measured IC50 readings.
biological target: mTOR/GbL/Raptor (mTORC1) (Homo sapiens, UniProt P42345); test: mTOR/GbL/Raptor (mTORC1) ELISA assay, phosphorylation of 4E-BP1; conditions: 0.2 nM mTORC1, 40 uM ATP, 50 nM NHis-tagged 4E-BP1, 120 minutes; read-out: IC50 in this assay (mTORC1 ELISA)

// worked examples, IC50 included
Cc1cc(-c2cnc3sc(N)nc3c2)cc2c1OCCN(c1nc(CN3CCC(F)(F)C3)nc(C)c1C(C)C)C2 | ≤ 100 nM
Cc1cc(-c2cnc(N)nc2)cc2c1OCCN(c1nc(N)nc(C)c1C(C)C)C2 | 100 to 500 nM

So what's the measured IC50 for this one? `Cc1cc(-c2nnc(N)s2)cc2c1OCCN(c1nc(N)ncc1C(C)C)C2`
≤ 100 nM

So what's the measured IC50 for this one? `Cc1cc(-c2cnc(Cl)c(NS(C)(=O)=O)c2)cc2c1OCCN(c1nc(CNCC(F)F)nc(C)c1C(C)C)C2`
≤ 100 nM

So what's the measured IC50 for this one? `Cc1cc(-c2cccc(C(N)=O)c2)cc2c1OCCN(c1nc(N)nc(C)c1C(C)C)C2`
100 to 500 nM

So what's the measured IC50 for this one? `Cc1cc(-c2cnn(C)c2)cc2c1OCCN(c1nc(N)nc(C)c1C(C)C)C2`
100 to 500 nM

So what's the measured IC50 for this one? `Cc1cc(-c2cccc(O)c2)cc2c1OCCN(c1nc(N)nc(C)c1C(C)C)C2`
100 to 500 nM

So what's the measured IC50 for this one? `COCCc1nc(C)c(C(C)C)c(N2CCOc3c(C)cc(-c4cnc(Cl)c(NS(C)(=O)=O)c4)cc3C2)n1`
≤ 100 nM
